The entries below come with measured SPOT peptide array binding signal intensity values attached.
# Study System: ScBem1-D1
# Procedure Details: SPOT peptide array binding signal intensity (averaged, normalized) (arbitrary units (background-subtracted, floor 0; scale differs between SH3 domains)); higher = stronger binding of the SH3 domain to the peptide
Just the number, please.

# count of solved cases: 6
{"Binder": "QLLNPNRRAPRRPLS", "Numeric Value": 45}
{"Binder": "MKRSRPSRSIPYTTP", "Numeric Value": 7}
{"Binder": "LSKRLPLRFPEHTSS", "Numeric Value": 23.5}
{"Binder": "RFKRHRLEFPFNESE", "Numeric Value": 52}
{"Binder": "LKVTPGRRAPTISKI", "Numeric Value": 9}
{"Binder": "NMLSRPRLAKLPSIR", "Numeric Value": 21}

Prompt: Sample NLKKRPPTAPQRKIS — what was its SPOT peptide array binding signal intensity?
Completion: 8

Where these numbers come from: the supplement of paper PMC4466140
